# Assay target: Grb2 SH2 (UniProt P62993)
# Sequence (P62993 whole entry, looked up, the tested form may be a part): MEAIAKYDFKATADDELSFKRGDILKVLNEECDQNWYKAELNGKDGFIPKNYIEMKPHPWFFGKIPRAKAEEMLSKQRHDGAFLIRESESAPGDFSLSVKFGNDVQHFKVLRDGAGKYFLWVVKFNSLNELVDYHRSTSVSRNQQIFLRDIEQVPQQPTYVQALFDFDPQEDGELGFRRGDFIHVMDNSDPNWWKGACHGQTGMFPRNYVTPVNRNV
# Protocol details: SH2 binding enrichment of the phosphorylated peptide, bacterial display (enrichment ratio); higher = better substrate or ligand; peptides without Tyr show the background;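 further: peptide library displayed on the E. coli surface as eCPX fusions, selected cells deep-sequenced, score is each peptide's frequency after selection divided by its frequency in the input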
Label No if SH2 binding enrichment falls below 0.9; label Yes in every other case.

[[record]]
monomer_sequence = "HAVFIYDICHV [TWNK_Y508_V507I_YF]"
answer_label = "Yes"

[[record]]
monomer_sequence = "GIVKAYFVRAR [AIPL1_Y267_YF]"
answer_label = "No"

[[record]]
monomer_sequence = "LLREWYLPDPY [SIX3_Y225_Q227P]"
answer_label = "Yes"

[[record]]
monomer_sequence = "AGVDRYSLGTS [C5orf42_Y1451_P1446A]"
answer_label = "No"

[[record]]
monomer_sequence = "NSRYTCKLEVK [USH2A_Y3747_Y3747C]"
answer_label = "No"

[[record]]
monomer_sequence = "YRQLPYCPSVE [CTNND2_Y508_Q507P]"
answer_label = "No"

[[record]]
monomer_sequence = "RRAKGYPIDLF [ITGB2_Y125_YF]"
answer_label = "No"

[[record]]
monomer_sequence = "SNNYIYKTLGV [FAM83B_Y639]"
answer_label = "Yes"

[[record]]
monomer_sequence = "FQKNSYSEELR [LMNA_Y211_I210S]"
answer_label = "No"

[[record]]
monomer_sequence = "FAKSVYWENTL [NUP107_Y296_YF]"
answer_label = "Yes"

[[record]]
monomer_sequence = "QKINNYLTVPA [SLC9A1_Y683]"
answer_label = "No"

[[record]]
monomer_sequence = "PFRSIYFSSPK [MPG_Y75_YF]"
answer_label = "No"


Each recorded value in this set is attributed to the supplement of paper PMC10065799.
